Recorded protein stability index for the following sequences
System: Saccharomyces cerevisiae
Experiment: protein stability index of tFT-peptide fusion (C-terminal peptide) (PSI (0-1 scale)); higher = more stable (slower turnover)
Conditions: genetic background: wild type; temperature: 30 C

>  <construct_sequence>
VRPQLGNHRILV

>  <assay_system>
Saccharomyces cerevisiae

>  <protein stability index>
0.609

$$$$
>  <construct_sequence>
TISEGMSGRRRR

>  <assay_system>
Saccharomyces cerevisiae

>  <protein stability index>
0.759

$$$$
>  <construct_sequence>
MVCSFVSLLGRF

>  <assay_system>
Saccharomyces cerevisiae

>  <protein stability index>
0.69

$$$$
>  <construct_sequence>
RSIAFLLGQFLS

>  <assay_system>
Saccharomyces cerevisiae

>  <protein stability index>
0.467

$$$$
>  <construct_sequence>
AAGLHFYIFRGI

>  <assay_system>
Saccharomyces cerevisiae

>  <protein stability index>
0.669

$$$$
>  <construct_sequence>
VPMVFSIYFGVS

>  <assay_system>
Saccharomyces cerevisiae

>  <protein stability index>
0.563

$$$$
>  <construct_sequence>
MKTSIQHNRNPG

>  <assay_system>
Saccharomyces cerevisiae

>  <protein stability index>
0.659

$$$$
>  <construct_sequence>
GLACSRYVLFWK

>  <assay_system>
Saccharomyces cerevisiae

>  <protein stability index>
0.562

$$$$
>  <construct_sequence>
ARSQGEKGGDVV

>  <assay_system>
Saccharomyces cerevisiae

>  <protein stability index>
0.692

$$$$
>  <construct_sequence>
LCLLCWIPCSFR

>  <assay_system>
Saccharomyces cerevisiae

>  <protein stability index>
0.524

$$$$
>  <construct_sequence>
TGKRADGGAEGG

>  <assay_system>
Saccharomyces cerevisiae

>  <protein stability index>
0.686

$$$$
>  <construct_sequence>
VGRWGGVSLGGR

>  <assay_system>
Saccharomyces cerevisiae

>  <protein stability index>
0.715

$$$$
>  <construct_sequence>
RLVCLVTQSVPH

>  <assay_system>
Saccharomyces cerevisiae

>  <protein stability index>
0.613

$$$$
>  <construct_sequence>
PPLLPPAPLFPP

>  <assay_system>
Saccharomyces cerevisiae

>  <protein stability index>
0.694

$$$$
>  <construct_sequence>
GSGGVGVTSGGK

>  <assay_system>
Saccharomyces cerevisiae

>  <protein stability index>
0.682

$$$$
>  <construct_sequence>
ALGVRVSVLGVL

>  <assay_system>
Saccharomyces cerevisiae

>  <protein stability index>
0.642

$$$$
>  <construct_sequence>
VLVCYFCRYISH

>  <assay_system>
Saccharomyces cerevisiae

>  <protein stability index>
0.485

$$$$
>  <construct_sequence>
CPNLWSRFASRC

>  <assay_system>
Saccharomyces cerevisiae

>  <protein stability index>
0.716

$$$$
>  <construct_sequence>
VWVAWLGGAILA

>  <assay_system>
Saccharomyces cerevisiae

>  <protein stability index>
0.267

$$$$

----------
Tested on: Saccharomyces cerevisiae
Experiment: protein stability index of tFT-peptide fusion (C-terminal peptide) (PSI (0-1 scale)); higher = more stable (slower turnover)
Conditions: genetic background: wild type; temperature: 30 C
# protein stability index listing for each entry below

>  <construct_sequence>
EESEKQLYTVLK [CUS1 C-terminal 12 aa]

>  <protein stability index>
0.676

$$$$
>  <construct_sequence>
SSSSTSVNKTLD [VIP1 C-terminal 12 aa]

>  <protein stability index>
0.707

$$$$
>  <construct_sequence>
CVTQACGRTIKM [YBR141W-A C-terminal 12 aa]

>  <protein stability index>
0.779

$$$$
>  <construct_sequence>
NLEATNNKKPPL [DAD4 C-terminal 12 aa]

>  <protein stability index>
0.697

$$$$
>  <construct_sequence>
QKARDFSRSVVH [ARO2 C-terminal 12 aa]

>  <protein stability index>
0.698

$$$$
>  <construct_sequence>
NYEDLATTQAAS [BRN1 C-terminal 12 aa]

>  <protein stability index>
0.68

$$$$
>  <construct_sequence>
ERCSLQNPFYSI [YNR066C C-terminal 12 aa]

>  <protein stability index>
0.696

$$$$
>  <construct_sequence>
EYEYEDDGLFER [GCD1 C-terminal 12 aa]

>  <protein stability index>
0.692

$$$$
>  <construct_sequence>
LSQFSNVRYLLQ [VPS70 C-terminal 12 aa]

>  <protein stability index>
0.545

$$$$
>  <construct_sequence>
SPYLKHLDSRKQ [CTS2 C-terminal 12 aa]

>  <protein stability index>
0.7

$$$$
>  <construct_sequence>
VPSLLILSVFFS [YPS3 C-terminal 12 aa]

>  <protein stability index>
0.273

$$$$
>  <construct_sequence>
FPRNLAKSVTVE [GFA1 C-terminal 12 aa]

>  <protein stability index>
0.593

$$$$
>  <construct_sequence>
FVLIVLGLLTYL [GET2 C-terminal 12 aa]

>  <protein stability index>
0.38

$$$$
>  <construct_sequence>
PSVSRKTPDYFL [PPH21 C-terminal 12 aa]

>  <protein stability index>
0.7

$$$$
>  <construct_sequence>
DLKTGNAVKGEL [SSZ1 C-terminal 12 aa]

>  <protein stability index>
0.691

$$$$
>  <construct_sequence>
MFLSIQPQEARP [KAP120 C-terminal 12 aa]

>  <protein stability index>
0.713

$$$$
>  <construct_sequence>
TIAAGKISEITQ [HBS1 C-terminal 12 aa]

>  <protein stability index>
0.697

$$$$
>  <construct_sequence>
RTAAESIANDRK [FRD1 C-terminal 12 aa]

>  <protein stability index>
0.708

$$$$
>  <construct_sequence>
EETLEFDPTLLV [YBL062W C-terminal 12 aa]

>  <protein stability index>
0.692

$$$$
>  <construct_sequence>
KETDKVNDENSI [MLP1 C-terminal 12 aa]

>  <protein stability index>
0.756

$$$$
>  <construct_sequence>
VFNDIFRLNYSA [NTF2 C-terminal 12 aa]

>  <protein stability index>
0.504

$$$$
>  <construct_sequence>
SGIVENDFENRS [YOR1 C-terminal 12 aa]

>  <protein stability index>
0.705

$$$$
>  <construct_sequence>
LVKCASATIMLN [MIN3 C-terminal 12 aa]

>  <protein stability index>
0.483

$$$$
>  <construct_sequence>
KKLEGTIEYQKL [RPT4 C-terminal 12 aa]

>  <protein stability index>
0.702

$$$$
>  <construct_sequence>
MSSTKKVRFVML [RMD5 C-terminal 12 aa]

>  <protein stability index>
0.642

$$$$
